# testProtocol: melting temperature; fluorescence melt of hairpins on a sequencing array, two-state fit, raised by 9.35 °C to match UV melts
# testParameters: sodium 0.088 M
measurementName: Tm (°C)
Give just the numeric value; °C need not be written.

Request: Complete the entry with Tm for GTCTGCGGAAACGTAGAC ((((.((....)).))))
Result: 53.2

Request: For GCTCTGCGAAAGCCGCGC ((.(.((....)).).)) , write its Tm.
Result: 39.4

Request: Supply Tm value. Item: GGGCCTCGAAAGAGACCC (((.(((....))).)))
Result: 56

Request: Item GATCTGAAGCCAGATC ((((((....)))))) : provide Tm
Result: 45.5

Request: Report Tm, nothing else, for this sequence: GATAGCGGAAACGCTGTC ((.((((....)))).))
Result: 52.2

Request: Answer with the recorded Tm of GTTTCGGGAAACTGAGAC ((.((.(....).)).)) only.
Result: 35.7

Request: Respond only with Tm recorded for GCTAGGCGAAAGCCACGC ((..(((....)))..))
Result: 41.5

Request: Look up and report measured Tm for this entry: GTAAGACGAAAGTCTAC (((.(((....))))))
Result: 41.7
